Molecular target: IDH1 R132C (Homo sapiens, UniProt O75874, R132C)
Sequence (O75874 whole entry R132C): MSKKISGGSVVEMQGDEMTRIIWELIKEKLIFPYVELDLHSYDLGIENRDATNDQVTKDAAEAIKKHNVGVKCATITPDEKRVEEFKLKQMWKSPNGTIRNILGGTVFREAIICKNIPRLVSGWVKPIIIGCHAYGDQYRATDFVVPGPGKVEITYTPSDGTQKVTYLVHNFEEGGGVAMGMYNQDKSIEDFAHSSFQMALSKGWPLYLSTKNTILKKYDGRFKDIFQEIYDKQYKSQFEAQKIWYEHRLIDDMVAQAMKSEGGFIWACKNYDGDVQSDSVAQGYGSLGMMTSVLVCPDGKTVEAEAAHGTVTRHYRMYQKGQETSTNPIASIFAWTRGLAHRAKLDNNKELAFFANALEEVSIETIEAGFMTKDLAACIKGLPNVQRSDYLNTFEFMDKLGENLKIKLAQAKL
Assay: IDH1 R132C enzymatic assay (NADPH depletion coupled to diaphorase/resazurin)
Assay type: biochemical
Settings: enzymatic inhibition, IDH1 R132C
pIC50: −log10 of the molar value.
Hi there, I'd appreciate the recorded pIC50 for every entry that follows.

Illustrative cases are given below, each with its answer.
CCOCc1c(C(=O)N2CCNCC2)cc(-c2nc(-c3ccc(Cl)cc3)cs2)c(=O)n1-c1c(CC)cccc1CC [Compound 404]    > 6.52
COc1cccc(CN2CCN(C)CC2)c1-n1c2c(cc(-c3nc(-c4ccc(Cl)cc4)cs3)c1=O)C(=O)CCC2 [Compound 411]    4.70 to 5.30
CCc1ncc(F)cc1-n1c(C=C(C)C)c(C(=O)N2CCNCC2)cc(-c2nc(-c3ccc(Cl)cc3)cs2)c1=O [Compound 507]    > 6.52
CCOc1ncc(C)cc1-n1c(C=C(C)C)c(C(=O)N2CCNCC2)cc(-c2nc(-c3ccc(C(F)(F)F)cc3)cs2)c1=O [Compound 587]    > 6.52
CCc1cccc(CC)c1-n1c(CC(C)C)c(C(=O)N2CCNCC2)cc(-c2csc(-c3ccc(Cl)cc3)n2)c1=O [Compound 505]    > 6.52
CCc1cccc(CC)c1-n1c(C=C(C)C)c(C(=O)N2CCNC(=O)C2c2ccccc2)cc(-c2nc(-c3ccc(Cl)cc3)cs2)c1=O (stereo not shown) [Compound 499]    > 6.52
CCc1cccc(CC)c1-n1c(CC(C)C)c(C(=O)N2CCNCC2)cc(-c2nc(-c3ccc(Cl)cc3)c(C(F)(F)F)s2)c1=O [Compound 430]    6.00 to 6.52
CCOc1ccc(F)cc1-n1c(C=C(C)C)c(C(=O)N2CCNCC2)cc(-c2nc(-c3ccc(C(F)(F)F)nc3)cs2)c1=O [Compound 477]    6.00 to 6.52
CCc1cccc(CC)c1-n1c(CC(C)C)c(C(=O)N2CCNCC2)cc(-c2nc(-c3ccc(Cl)cc3)c(C#N)s2)c1=O [Compound 501]    6.00 to 6.52
Cc1ccc(-n2c3c(cc(-c4nc(-c5ccc(Cl)cc5)cs4)c2=O)C(=O)CCC3)c(C)c1 [Compound 450]    < 4.70

For every item below, please supply its pIC50.
1. CCc1cccc(CC)c1-n1c(C=C(C)C)c(C(=O)N2CCC3(CNC3)C2)cc(-c2nc(-c3ccc(Cl)cc3)cs2)c1=O [Compound 519]
2. CCc1cccc(CC)c1-n1c(C2CCC2)c(C(=O)N2CCNCC2)cc(-c2nc(-c3ccc(Cl)cc3)cs2)c1=O [Compound 434]
3. COc1cccc(F)c1-n1c(C=C(C)C)c(C(=O)N2CCNCC2)cc(-c2nc(-c3ccc(Cl)cc3)cs2)c1=O [Compound 556]

Response:
> 6.52
> 6.52
> 6.52

====

Target: IDH1 R132H (Homo sapiens, UniProt O75874, R132H)
Sequence (O75874 whole entry R132H): as the sequence (O75874 whole entry R132C) above, with C132H counted along it
Experiment: IDH1 R132H enzymatic assay (NADPH depletion coupled to diaphorase/resazurin)
Format: biochemical
Settings: enzymatic inhibition, IDH1 R132H
pIC50: −log10 of the molar value.
Please respond with reported pIC50 for every item in the list.

Observe how each entry below is paired with its result.
CCc1cccc(CC)c1-n1c(C=C(C)C)c(C(=O)N2CCN[C@H](C)C2)cc(-c2nc(-c3ccc(C(F)(F)F)cc3)cs2)c1=O [Compound 483]    > 6.52
CCc1cccc(CC)c1-n1c(CC(C)C)c(C(=O)N2CCNCC2)cc(-n2ccc(-c3ccc(Cl)cc3)n2)c1=O [Compound 452]    > 6.52
CCc1ccc(Cl)cc1-n1c(C=C(C)C)c(C(=O)N2CCNCC2)cc(-c2nc(-c3ccc(C(F)F)cc3)cs2)c1=O [Compound 571]    > 6.52
CC1(C)CC(=O)c2cc(-c3nc(-c4ccc(Cl)cc4)cs3)c(=O)n(-c3sccc3C#N)c2C1 [Compound 402]    6.00 to 6.52

# return pIC50 for each item in the list
1. COc1ccccc1-n1c2c(cc(-c3nc(-c4ccc(Cl)cc4)cs3)c1=O)C(=O)CCC2 [Compound 503]
2. CCc1cccc(CC)c1-n1c(C)c(C(=O)N2CCNCC2)c(O)c(-c2nc(-c3ccc(Cl)cc3)cs2)c1=O [Compound 535]
3. COc1ccc(Cl)c(-n2c(C=C(C)C)c(C(=O)N3CCNCC3)cc(-c3nc(-c4ccc(Cl)cc4)cs3)c2=O)c1 [Compound 500]
4. CCc1cccc(CC)c1-n1c(C=C(C)C)c(C(=O)N2CCNC(CC)C2)cc(-c2nc(-c3ccc(Cl)cc3)cs2)c1=O (stereo not shown) [Compound 550]
5. CN1CCN(Cc2ccc(-n3c4c(cc(-c5nc(-c6ccc(Cl)cc6)cs5)c3=O)C(=O)CC(C)(C)C4)cc2)CC1 [Compound 498]
6. CCOc1ncc(Cl)cc1-n1c(C=C(C)C)c(C(=O)N2CCNCC2)cc(-c2nc(-c3ccc(Cl)cc3)cs2)c1=O [Compound 575]

Response:
5.30 to 6.00
6.00 to 6.52
> 6.52
> 6.52
5.30 to 6.00
> 6.52

====

Exercise: state measured IC50 for each of the molecules provided.
Target: IDH1 R132H (Homo sapiens, UniProt O75874, R132H)
Assay: IDH1 R132H enzymatic assay (NADPH depletion coupled to diaphorase/resazurin)
Type: biochemical
Details: IDH1 R132H enzymatic inhibition, IC50 class
Procedure: Assays were conducted in a 1536-well black solid-bottom plate with a final assay volume of 9 μL. Specifically, for IDH1 R132H, 3 μL of enzyme (4 mM β-ME, 0.0005 mg/mL IDH1 R132H, 150 mM NaCl, 20 mM Tris pH 7.5, 10 mM MgCl2, 0.05% BSA) were added to the plate, followed by the addition of 23 nL of test compound in DMSO. […]

A selection of reference data follows.
CCc1cccc(CC)c1-n1c(CC(C)C)c(C(=O)NC[C@@H](N)C(=O)O)cc(-c2nc(-c3ccc(Cl)cc3)cs2)c1=O [Compound 172]    300 to 1000 nM
CCc1cccc(CC)c1-n1c(C)c(C(=O)NCC(C)(C)C)cc(-c2nc(-c3ccc(Cl)cc3)cs2)c1=O [Compound 146]    > 20000 nM
O=C1CCCc2c1cc(-c1nc(-c3ccc(Cl)cc3)cs1)c(=O)n2-c1ccccc1CN1CCOCC1 [Compound 339]    5000 to 20000 nM
COc1ccc(OC)c(-n2c3c(cc(-c4nc(-c5ccc(Cl)cc5)cs4)c2=O)C(=O)CC3)c1 [Compound 24]    > 20000 nM
CC(C)=Cc1c(C(=O)N2CCNCC2)cc(-c2nc(-c3ccc(Cl)cc3)cs2)c(=O)n1-c1cc(F)cnc1OC(C)C [Compound 316]    < 300 nM
CCc1cccc(CC)c1-n1c(CC(C)C)c(C(=O)N2CCNCC2)cc(-c2nc(-c3ccc(C#N)cc3)c(C)s2)c1=O [Compound 235]    < 300 nM
COC(=O)c1ccccc1-n1c2c(cc(-c3nc(-c4ccc(Cl)cc4)cs3)c1=O)C(=O)CC(C)(C)C2 [Compound 254]    300 to 1000 nM

Query: Fill blank: measured IC50 of the molecule CCc1cccc(CC)c1-n1c(CC(C)C)c(C(=O)N2CCN[C@@H](CO)C2)cc(-c2nc(-c3ccc(Cl)cc3)cs2)c1=O [Compound 8] is ____.
Response: < 300 nM

====

Target: IDH1 R132C (Homo sapiens, UniProt O75874, R132C)
Experiment: IDH1 R132C enzymatic assay (NADPH depletion coupled to diaphorase/resazurin)
Format: biochemical
Conditions: IDH1 R132C enzymatic inhibition, IC50 class
reported.property: IC50

State recorded IC50 for all listed compounds.
1. CC1(C)CC(=O)c2cc(-c3nc(-c4ccc(Cl)cc4)cs3)c(=O)n(-c3ccccc3CN)c2C1
2. CCc1cccc(CC)c1-n1c(C(C)C)c(C(=O)N2CCNC(C(=O)OC)C2)cc(-c2nc(-c3ccc(Cl)cc3)cs2)c1=O (centres unmarked)
3. CCc1cccc(CC)c1-n1c(C)c(C(=O)NC2CCNCC2)cc(-c2nc(-c3ccc(Cl)cc3)cs2)c1=O
4. CCc1cccc(CC)c1-n1c(CC(C)C)c(C(=O)N2CCNC(CO)C2)cc(-c2nc(-c3ccc(Cl)cc3)cs2)c1=O (centres unmarked)
5. COc1ccc(Cl)c(-n2c(C=C(C)C)c(C(=O)N3CCNCC3)cc(-c3ccn(-c4ccc(Cl)cc4)n3)c2=O)c1

Response:
1. 5 to 20 µM
2. 0.3 to 1 µM
3. 0.3 to 1 µM
4. < 0.3 µM
5. 0.3 to 1 µM

====

Answer each item with its documented IC50.
Biological target: IDH1 R132H (Homo sapiens, UniProt O75874, R132H)
Experiment: IDH1 R132H enzymatic assay (NADPH depletion coupled to diaphorase/resazurin)
Type: biochemical
Details: enzymatic inhibition, IDH1 R132H

Study these solved cases before continuing.
CCOCc1c(C(=O)N2CCNCC2)cc(-c2nc(-c3ccc(Cl)cc3)cs2)c(=O)n1-c1c(CC)cccc1CC [Compound 404]    < 300 nM
O=C1CCCc2c1cc(-c1nc(-c3ccc(Cl)cc3)cs1)c(=O)n2-c1cccc(CO)c1 [Compound 565]    5000 to 20000 nM
Cc1ccccc1-n1c(C)c(C(=O)N2CCNCC2)cc(-c2nc(-c3ccc(Cl)cc3)cs2)c1=O [Compound 470]    1000 to 5000 nM
CCOc1ccccc1-n1c(C=C(C)C)c(C(=O)N2CCNCC2)cc(-c2nc(-c3ccc(Cl)cc3)cs2)c1=O [Compound 572]    < 300 nM
Cc1ccc(CN2CCN(C)CC2)cc1-n1c2c(cc(-c3nc(-c4ccc(Cl)cc4)cs3)c1=O)C(=O)CCC2 [Compound 563]    > 20000 nM

// for each compound in input: emit IC50
1. CCc1ncc(F)cc1-n1c(C=C(C)C)c(C(=O)N2CCNCC2)cc(-c2nc(-c3ccc(C(F)F)cc3)cs2)c1=O [Compound 524]
2. CCc1cccc(CC)c1-n1c(C=C(C)C)c(C(=O)N2CCNC(C(=O)O)C2)cc(-c2nc(-c3ccc(Cl)cc3)cs2)c1=O (stereo not drawn) [Compound 591]
3. CCc1cccc(CC)c1-n1c(C=C(C)C)c(C(=O)N2CCNCC2)cc(-c2nc(-c3ccc(C(F)F)nc3)cs2)c1=O [Compound 546]
4. CCCc1c(C(=O)N2CCNCC2)cc(-c2nc(-c3ccc(Cl)cc3)cs2)c(=O)n1-c1c(CC)cccc1CC [Compound 473]
5. CCc1cc(C)cc(CC)c1-n1c2c(cc(-c3nc(-c4ccc(Cl)cc4)cs3)c1=O)C(=O)CCC2 [Compound 531]
6. COc1ccc(CN2CCN(C)CC2)cc1-n1c2c(cc(-c3nc(-c4ccc(Cl)cc4)cs3)c1=O)C(=O)CCC2 [Compound 527]
7. CCc1ncc(OC)cc1-n1c(C=C(C)C)c(C(=O)N2CCNCC2)cc(-c2nc(-c3ccc(C(F)F)cn3)cs2)c1=O [Compound 466]

Response:
< 300 nM
< 300 nM
< 300 nM
< 300 nM
5000 to 20000 nM
> 20000 nM
1000 to 5000 nM
